For each record, write down the corresponding growth.
System: UACC-257 melanoma
Experiment: NCI-60 one-dose screen, 48 h (100 = growth as untreated, 0 = no growth, -100 = all killed)
Conditions: 10 µM
This is part of a sample that, as a whole, favours compounds with a hit. Of some 83,000 tested, about 20% had one in any assay.
Use % as the unit, but write only the number.

So what does the record say about growth for COc1ccc2cc([C@H](C)C(=O)[Se]CCC#N)ccc2c1 ?
-76.9

Fill blank: measured growth of the molecule O=C(/C=C/c1ccccc1)c1nc2ccccc2n1Cc1ccc(F)cc1 is ____.
-1.28

Looking for the measured growth of CC[C@]12C=CCN3CC[C@@]4(c5ccc(OC)cc5N(C)[C@H]4[C@@](O)(C(=O)OC)[C@@H]1OC(=O)CCCC[P+](c1ccc(C)cc1)(c1ccc(C)cc1)c1ccc(C)cc1)[C@@H]32 , can you help?
-95

I have this molecule here, O=C(/C=C/c1ccccc1)c1nc2ccccc2n1Cc1ccc(Br)cc1 , and I need its recorded growth.
-51.1

If you can, please state the reported growth value of COC(=O)C[C@](O)(CCC(C)C)C(=O)O[C@@H]1C(OC)=C[C@]23CCCN2CCc2cc4c(cc2[C@H]13)OCO4 .
-66.7

Which growth reading was recorded for the molecule O=C(/C=C/c1ccc(Cl)cc1Cl)c1nc2ccccc2n1Cc1ccc(Br)cc1 ?
84.4

Form field: reported growth of O=C(/C=C/c1ccc(F)cc1)c1nc2ccccc2n1Cc1ccc(F)cc1
25.6

I'd like to know its growth. The molecule in question is C#CCCCN(CCNc1ccnc2cc(Cl)ccc12)C(=O)CCC(=O)O[C@@H]1O[C@@H]2OC3(C)CC[C@H]4[C@H](C)CC[C@@H]([C@H]1C)[C@@]24OO3
29.3

* * *

System: HL-60(TB) leukemia
Experiment: NCI-60 one-dose screen, 48 h
Details: 10 µM unless noted
The panel holds about 83,000 compounds, 20% with a hit somewhere; the sample as a whole holds those more often. Active and inactive are the calls of the source. The calls were made as follows: active = growth percent below 10; inactive = the rest.
Response enum: active, inactive

Test call for this compound, please: Cc1ccc(CNC(=O)Cc2ccc3c(c2)CN(C2CCC(=O)NC2=O)C3=O)cc1 (centres undefined)
active

Fill in: this test's call for CCCSc1nc(NCCc2c[nH]c3ccccc23)c(C#N)c(-c2ccc(F)cc2)n1 is ___
inactive

For this compound, state the assay outcome: CCCCCCCCc1cccc(CC(=O)Nc2ccc(C)cc2C(=O)O)c1
inactive

Given N#Cc1c(-c2ccc(F)cc2)nc(SCc2ccccc2)nc1N1CCNCC1 , state the outcome it received in this test.
active

Entry Cc1noc2c(Cc3ccccc3)nn(CC(=O)N/N=C/c3ccc(Cl)cc3)c(=O)c12 : call = ?
inactive

Recorded test outcome, item CCOP(=O)(OCC)O[C@H]1CCC(=O)[C@@H]2[C@H]1[C@H]1C[C@@H]3[C@@]4(C)CCCC(C)(C(=O)OC)[C@@H]4CC[C@@]23C=C1C(C)C (some centres undefined)
inactive

# fetch the recorded call for Cn1cc(-c2cc3nc(-c4cn(C)c5ncc(Br)cc45)cc(N)n3n2)c2cc(F)ccc21 here
active

# lookup: test call for CSc1ccc(NC(=O)c2ccc3nn(/C(C#N)=C/c4ccccn4)nc3c2)cc1
active

Returns: the outcome recorded for Cc1c(C(=O)NNC(=O)c2ccc(Cl)cc2)nnn1-c1ccc(Br)cc1 in this assay.
inactive

* * *

System: SR leukemia
Assay: NCI-60 one-dose screen, 48 h (100 = growth as untreated, 0 = no growth, -100 = all killed)
Conditions: 10 µM
This is part of a sample that, as a whole, favours compounds with a hit. Of some 83,000 tested, about 20% had one in any assay. The source made the active and inactive calls. The calls were made as follows: active = growth percent below 10; inactive = the rest.
I'd appreciate it if you could supply growth values for the items below.

Notebook: pull reported growth for SR leukemia, entry COC(=O)c1ccc(-n2cc(CCCN(CCNc3ccnc4cc(Cl)ccc34)C(=O)CCC(=O)O[C@@H]3O[C@@H]4OC5(C)CC[C@H]6[C@H](C)CC[C@@H]([C@H]3C)[C@@]46OO5)nn2)cc1
-10% (active)

Request - read-out growth | tested on SR leukemia | compound CC(C)N=C([Se])NC(=O)c1ccccc1
-9.62% (active)

Write down the reported growth of C[C@H]1[C@H](OC(=O)CCC(=O)N(CCCc2cn(-c3ccc([N+](=O)[O-])cc3)nn2)CCNc2ccnc3cc(Cl)ccc23)O[C@@H]2OC3(C)CC[C@H]4[C@H](C)CC[C@@H]1[C@@]24OO3 , test system: SR leukemia.
-15.2% (active)

Request: growth, test system SR leukemia, entry COc1cc2cc(C(=O)N3C[C@@H](CCl)c4c3cc(OC(=O)N3CCN(C(=O)CCC(=O)N5CCN(C)CC5)[C@@H]5CSSC[C@@H]53)c3ccccc43)[nH]c2c(OC)c1OC
-12.9% (active)

Please provide the recorded growth for COc1ccc(/C=C/C(=O)c2nc3ccccc3n2Cc2ccc(Br)cc2)cc1 , tested on SR leukemia.
25.6% (inactive)

What value of growth on SR leukemia does CC[C@]12C=CCN3CC[C@@]4(c5ccc(OC)cc5N(C)[C@H]4[C@@](O)(C(=O)OC)[C@@H]1OC(=O)CCCC[P+](c1ccc(C)cc1)(c1ccc(C)cc1)c1ccc(C)cc1)[C@@H]32 have?
25.8% (inactive)

Item: O=C(/C=C/c1ccc(Br)cc1)c1nc2ccccc2n1Cc1ccc(Br)cc1 Test system: SR leukemia Read-out: growth Value: ?
-13.9% (active)

* * *

Tested on: SW-620 colon
Experiment: NCI-60 one-dose screen, 48 h (100 = growth as untreated, 0 = no growth, -100 = all killed)
Details: 10 µM
This is part of a sample that, as a whole, favours compounds with a hit. Of some 83,000 tested, about 20% had one in any assay.
propertyName: growth (%)
Please state the figure in %; there is no need to write the unit.

Look at this molecule and give its reported growth. CC[C@]12C=CCN3CC[C@@]4(c5ccc(OC)cc5N(C)[C@H]4[C@@](O)(C(=O)OC)[C@@H]1OC(=O)CCCC[P+](c1ccc(C)cc1)(c1ccc(C)cc1)c1ccc(C)cc1)[C@@H]32
-88.1

Please give the measured growth for this molecule: COc1cc(OC)c(S(=O)(=O)N(CCCl)CCCl)cc1C(=O)/C=C/c1cc(OC)c(OC)c(OC)c1
7.43

I am curious: what growth value has been reported for CC(=O)Oc1ccccc1C(=O)[Se]C(=NC(C)C)NC(C)C ?
-72.4

* * *

Test system: MDA-MB-468 breast
Assay: NCI-60 one-dose screen, 48 h (100 = growth as untreated, 0 = no growth, -100 = all killed)
Settings: 10 µM unless noted
This is part of a sample that, as a whole, favours compounds with a hit. Of some 83,000 tested, about 20% had one in any assay.
Classification field: 1.0 = growth at or over 60%; 0.0 = growth under 60%.

Check this compound for growth at or above 60%: CN(C)P1(N(C)C)=NP(N(C)C)(N(C)C)=NP(N(C)C)(N(C)C)=N1
1.0

# bool: growth of O=P(N1CC1)(N1CC1)N1CCc2ccccc21 >= 60%
1.0

Has CC1(C)N=C(N)N=C(N)N1c1ccc(OCCCCNC(=O)c2ccc(S(=O)(=O)F)cc2)c(Cl)c1 a recorded growth greater than or equal to 60%?
1.0

Has CC(=O)OC1CC2(O)C(CCC3(C)C(c4ccc(=O)oc4)CCC32O)C2(C)CCC(OC3OC(CO)C(O)C(O)C3O)C=C12 (centres undefined) a recorded growth greater than or equal to 60%?
0.0

Threshold query (growth >= 60%) on CCCCCCC(=O)NC1=C(N2CC2)C(=O)C(NC(=O)CCCCCC)=C(N2CC2)C1=O
0.0

Confirm if growth reported for the compound CC1=C(CCCOC(=O)CN)C2=C(C)C3(CC3)[C@@](C)(O)C(=O)C2=C1 is 60% or above.
0.0

# bool: growth of COc1ccc(C(c2ccc(OC)cc2)C(Cl)(Cl)Cl)cc1 >= 60%
0.0

# check: growth of Cc1cc(C)cc(Nc2nc3c(s2)CC[C@@]2(C)C3=CC[C@@H]3[C@@H]2CC[C@]2(C)C(=O)CC[C@@H]32)c1 is greater than or equal to 60%
0.0

* * *

Test system: HL-60(TB) leukemia
Test: NCI-60 one-dose screen, 48 h (100 = growth as untreated, 0 = no growth, -100 = all killed)
Settings: 10 µM unless noted
Compounds without any hit were thinned out: in the full panel of roughly 83,000, 20% have a hit.
For each entry below, report its growth value.
Return type: number; implicit unit %.

Tell me the measured growth of CCc1ccccc1NC(=O)N/C(N)=N/c1nc2ccccc2s1 , please.
-27.2

May I ask what growth has been recorded for CS(=O)(=O)Nc1ccc(-c2ccc3c(c2)ncn3-c2ccc(NC(=O)Nc3ccc(Cl)c(C(F)(F)F)c3)cc2)cc1 ?
-42.4

Consider the compound shown here: O=C1Nc2cc(-c3ccc(NS(=O)(=O)c4ccc(F)c(Cl)c4)cc3)ccc2/C1=C/c1ccc[nH]1 What is its recorded growth?
46.9

# get_value(readout='growth', item= Cc1ccc(C(C)C)cc1Oc1cccc(-c2c(-c3ccc(C(F)(F)F)cc3)ncn2C2CCNCC2)n1 )
-83.1

Sample O=C1CC(Sc2n[nH]c(-c3ccncc3)n2)C(=O)N1c1ccc(Br)cc1 (stereo not given) — what was its growth?
101
